tested on: TE-12; assay: cells; type: functional, cell-based; details: Homo sapiens;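 also: growth inhibition of TE-12 cells, read out by a cell viability assay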
Description: SANGER: Inhibition of human TE-12 cell growth in a cell viability assay.
Measured pIC50 values are reported for all entries that follow.
// pIC50: -log10(molar conc.)

Solved entries (count: 2):
{"molecule": "Cc1nc(Nc2ncc(C(=O)Nc3c(C)cccc3Cl)s2)cc(N2CCN(CCO)CC2)n1 [DASATINIB]", "pIC50": 7.73}
{"molecule": "CCNc1cc(N[C@H]2CC[C@@H](O)CC2)nc(Nc2ccc3c(ccn3Cc3ccccc3)c2)n1", "pIC50": 5.30}

Query (molecule): Cc1n[nH]c2ccc(-c3cncc(OC[C@@H](N)Cc4c[nH]c5ccccc45)c3)cc12 [A-443654] ; field requested: pIC50 6.71

====

tested on: OCUB-M; experiment: cells; format: functional, cell-based; conditions: Homo sapiens;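 also: growth inhibition of the cancer cell line, read out through a cell viability assay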
Description: SANGER: Inhibition of human OCUB-M cell growth in a cell viability assay.
pIC50: −log10 of the molar value.
observed.property: pIC50

{"compound": "CCCS(=O)(=O)Nc1ccc(F)c(C(=O)c2c[nH]c3ncc(Cl)cc23)c1F [PLX-4720]", "pIC50": "< 5.00"}
{"compound": "C/C(O)=C(\\C#N)C(=O)Nc1cc(Br)ccc1Br", "pIC50": "< 4.80"}
{"compound": "O=c1cc(N2CCOCC2)oc2c(-c3cccc4c3sc3ccccc34)cccc12", "pIC50": "< 5.70"}

Query (compound): Cc1nc(Nc2ncc(C(=O)Nc3c(C)cccc3Cl)s2)cc(N2CCN(CCO)CC2)n1 [DASATINIB] ; field requested: pIC50 5.98

====

Measured pIC50 values are reported for all entries that follow.
tested on: IGROV-1; assay: cells; type: functional, cell-based; conditions: Homo sapiens;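 also: reduction of IGROV-1 cell growth, read out with a viability assay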
Description: SANGER: Inhibition of human IGROV-1 cell growth in a cell viability assay.
// pIC50: -log10(molar conc.)

Query (molecule): C[C@]12O[C@H](C[C@]1(O)CO)n1c3ccccc3c3c4c(c5c6ccccc6n2c5c31)CNC4=O ; field requested: pIC50 6.34

Same for Fc1cc(-c2cc[nH]/c(=N/c3ccc(-n4cnc(N5CCOCC5)n4)cc3)n2)cc(N2CCOCC2)c1 7.01

Same for N#C/C(=C1/Nc2ccccc2S1)c1ccnc(NCCc2cccnc2)n1 6.22

Same for CO[C@@]12[C@H](COC(N)=O)C3=C(C(=O)C(C)=C(N)C3=O)N1C[C@@H]1N[C@@H]12 6.97

====

test system: CAPAN-1; assay: cells; assay type: functional, cell-based; conditions: Homo sapiens
Description: SANGER: Inhibition of human CAPAN-1 cell growth in a cell viability assay.
observed.property: pIC50
// pIC50: -log10(molar conc.)

{"smiles.notation": "CC[C@]1(O)C[C@@H]2CN(CCc3c([nH]c4ccccc34)[C@@](C(=O)OC)(c3cc4c(cc3OC)N(C)[C@H]3[C@@](O)(C(=O)OC)[C@H](OC(C)=O)[C@]5(CC)C=CCN6CC[C@]43[C@@H]65)C2)C1", "observed.property": "pIC50", "experimental.value": 7.28}

Continue with the compound presented below.
Query (compound): CO[C@@]12[C@H](COC(N)=O)C3=C(C(=O)C(C)=C(N)C3=O)N1C[C@@H]1N[C@@H]12 ; field requested: pIC50 6.93

====

Measured IC50 values are reported for all entries that follow.
test system: ACN; assay: cells; assay type: functional, cell-based; details: Homo sapiens;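 also: growth inhibition of the human ACN cell line, read out via cell viability testing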
Description: SANGER: Inhibition of human ACN cell growth in a cell viability assay.
Reply numerically in µM, unit not repeated.

Query (molecule): Cn1c(=O)n(-c2ccc(C(C)(C)C#N)cc2)c2c3cc(-c4cnc5ccccc5c4)ccc3ncc21 ; field requested: IC50 0.0818

Same for NC(=O)c1ncn([C@@H]2O[C@H](COP(=O)(O)O)[C@@H](O)[C@H]2O)c1N 1880

Same for Cn1cc(/C=C2\C(=O)Nc3cccnc32)c2ccccc21 0.865

Same for CC[C@@]1(O)C(=O)OCc2c1cc1n(c2=O)Cc2cc3ccccc3nc2-1 0.0857

====

Measured pIC50 values are reported for all entries that follow.
system: MZ7-mel; experiment: cells; format: functional, cell-based; conditions: Homo sapiens;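 also: growth inhibition of human MZ7-mel cells, measured by a cell viability assay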
Description: SANGER: Inhibition of human MZ7-mel cell growth in a cell viability assay.
// pIC50: -log10(molar conc.)

Solved entries (count: 2):
{"smiles.notation": "CCCS(=O)(=O)Nc1ccc(F)c(C(=O)c2c[nH]c3ncc(Cl)cc23)c1F", "pIC50": 5.94}
{"smiles.notation": "CO[C@@]12[C@H](COC(N)=O)C3=C(C(=O)C(C)=C(N)C3=O)N1C[C@@H]1N[C@@H]12", "pIC50": 6.48}

Continue with the molecule presented below.
Query (molecule): Fc1cc(-c2cc[nH]/c(=N/c3ccc(-n4cnc(N5CCOCC5)n4)cc3)n2)cc(N2CCOCC2)c1 ; field requested: pIC50 5.54

====

test system: TGBC1TKB; test: cells; type: functional, cell-based; conditions: Homo sapiens
Description: SANGER: Inhibition of human TGBC1TKB cell growth in a cell viability assay.
observed.property: IC50

Query (molecule): O=c1[nH]c2ccccc2n1C1CCN(Cc2ccc(-c3nc4cc5[nH]cnc5cc4nc3-c3ccccc3)cc2)CC1 ; field requested: IC50 > 2.56 µM

====

tested on: SW872; test: cells; type: functional, cell-based; conditions: Homo sapiens;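 also: growth inhibition of SW872 cells, read out by a viability assay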
Description: SANGER: Inhibition of human SW872 cell growth in a cell viability assay.
observed.property: IC50

{"compound": "CCNC(=O)c1noc(-c2cc(C(C)C)c(O)cc2O)c1-c1ccc(CN2CCOCC2)cc1 [LUMINESPIB]", "study.target": "SW872", "experimental.value": "0.0322 µM"}
{"compound": "CC[C@]1(O)C[C@@H]2CN(CCc3c([nH]c4ccccc34)[C@@](C(=O)OC)(c3cc4c(cc3OC)N(C)[C@H]3[C@@](O)(C(=O)OC)[C@H](OC(C)=O)[C@]5(CC)C=CCN6CC[C@]43[C@@H]65)C2)C1 [VINBLASTINE]", "study.target": "SW872", "experimental.value": "> 0.1 µM"}
{"compound": "C/C=C(/C)C(=O)O[C@H]1C(C)=C2[C@H]([C@@H]1OC(=O)CCCCCCC)[C@@](C)(OC(C)=O)C[C@H](OC(=O)CCC)[C@@]1(O)[C@H]2OC(=O)[C@@]1(C)O [THAPSIGARGIN]", "study.target": "SW872", "experimental.value": "0.00578 µM"}
{"compound": "CC[C@@]1(O)C(=O)OCc2c1cc1n(c2=O)Cc2cc3ccccc3nc2-1 [CAMPTOTHECIN]", "study.target": "SW872", "experimental.value": "0.0242 µM"}

Param readout= IC50; system= SW872; entry= Cn1cc(/C=C2\C(=O)Nc3cccnc32)c2ccccc21 ; returns value. > 2 µM

Same for CO[C@@]12[C@H](COC(N)=O)C3=C(C(=O)C(C)=C(N)C3=O)N1C[C@@H]1N[C@@H]12 [MITOMYCIN] < 0.0625 µM

Same for NC(=O)c1ncn([C@@H]2O[C@H](COP(=O)(O)O)[C@@H](O)[C@H]2O)c1N > 2000 µM

Same for O=c1cc(N2CCOCC2)oc2c(-c3cccc4c3sc3ccccc34)cccc12 > 2 µM

Same for COc1cc(Nc2c(C#N)cnc3cc(OCCCN4CCN(C)CC4)c(OC)cc23)c(Cl)cc1Cl [BOSUTINIB] > 2 µM

====

tested on: MFE-280; test: cells; format: functional, cell-based; conditions: Homo sapiens;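 also: growth inhibition of MFE-280 cells, determined with a cell viability readout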
Description: SANGER: Inhibition of human MFE-280 cell growth in a cell viability assay.
Measured IC50 values are reported for all entries that follow.

Solved entries (count: 5):
{"smiles.notation": "Fc1cc(-c2cc[nH]/c(=N/c3ccc(-n4cnc(N5CCOCC5)n4)cc3)n2)cc(N2CCOCC2)c1", "IC50": "> 5.12 µM"}
{"smiles.notation": "CC(C)=CC[C@@H](O)C1=CC(=O)c2c(O)ccc(O)c2C1=O", "IC50": "4.95 µM"}
{"smiles.notation": "Cn1cc(/C=C2\\C(=O)Nc3cccnc32)c2ccccc21", "IC50": "> 2 µM"}
{"smiles.notation": "CC(=O)c1c(C)c2cnc(Nc3ccc(N4CCNCC4)cn3)nc2n(C2CCCC2)c1=O", "IC50": "> 4 µM"}
{"smiles.notation": "C/C(O)=C(\\C#N)C(=O)Nc1cc(Br)ccc1Br", "IC50": "> 16 µM"}

Query (compound): C[C@]12O[C@H](C[C@]1(O)CO)n1c3ccccc3c3c4c(c5c6ccccc6n2c5c31)CNC4=O ; field requested: IC50 > 2 µM

====

Measured IC50 values are reported for all entries that follow.
test system: TYK-nu; experiment: cells; assay type: functional, cell-based; settings: Homo sapiens
Description: SANGER: Inhibition of human TYK-nu cell growth in a cell viability assay.

{"smiles.notation": "CCCS(=O)(=O)Nc1ccc(F)c(C(=O)c2c[nH]c3ncc(Cl)cc23)c1F", "observed.property": "IC50", "experimental.value": "> 10 µM"}

Param readout= IC50; system= TYK-nu; entry= C/C(O)=C(\C#N)C(=O)Nc1cc(Br)ccc1Br ; returns value. > 16 µM

Same for O=c1cc(N2CCOCC2)oc2c(-c3cccc4c3sc3ccccc34)cccc12 > 2 µM

====

system: NB12; test: cells; format: functional, cell-based; settings: Homo sapiens
Description: SANGER: Inhibition of human NB12 cell growth in a cell viability assay.
Measured pIC50 values are reported for all entries that follow.
// pIC50: -log10(molar conc.)

{"molecule": "Fc1cc(-c2cc[nH]/c(=N/c3ccc(-n4cnc(N5CCOCC5)n4)cc3)n2)cc(N2CCOCC2)c1", "experimental.value": 6.42}

Continue with the molecule presented below.
Query (molecule): C/C=C(/C)C(=O)O[C@H]1C(C)=C2[C@H]([C@@H]1OC(=O)CCCCCCC)[C@@](C)(OC(C)=O)C[C@H](OC(=O)CCC)[C@@]1(O)[C@H]2OC(=O)[C@@]1(C)O [THAPSIGARGIN] ; field requested: pIC50 7.88
